- target.of.assay: VEGFR1 (Homo sapiens (Human))
- Sequence (P17948 27-1338): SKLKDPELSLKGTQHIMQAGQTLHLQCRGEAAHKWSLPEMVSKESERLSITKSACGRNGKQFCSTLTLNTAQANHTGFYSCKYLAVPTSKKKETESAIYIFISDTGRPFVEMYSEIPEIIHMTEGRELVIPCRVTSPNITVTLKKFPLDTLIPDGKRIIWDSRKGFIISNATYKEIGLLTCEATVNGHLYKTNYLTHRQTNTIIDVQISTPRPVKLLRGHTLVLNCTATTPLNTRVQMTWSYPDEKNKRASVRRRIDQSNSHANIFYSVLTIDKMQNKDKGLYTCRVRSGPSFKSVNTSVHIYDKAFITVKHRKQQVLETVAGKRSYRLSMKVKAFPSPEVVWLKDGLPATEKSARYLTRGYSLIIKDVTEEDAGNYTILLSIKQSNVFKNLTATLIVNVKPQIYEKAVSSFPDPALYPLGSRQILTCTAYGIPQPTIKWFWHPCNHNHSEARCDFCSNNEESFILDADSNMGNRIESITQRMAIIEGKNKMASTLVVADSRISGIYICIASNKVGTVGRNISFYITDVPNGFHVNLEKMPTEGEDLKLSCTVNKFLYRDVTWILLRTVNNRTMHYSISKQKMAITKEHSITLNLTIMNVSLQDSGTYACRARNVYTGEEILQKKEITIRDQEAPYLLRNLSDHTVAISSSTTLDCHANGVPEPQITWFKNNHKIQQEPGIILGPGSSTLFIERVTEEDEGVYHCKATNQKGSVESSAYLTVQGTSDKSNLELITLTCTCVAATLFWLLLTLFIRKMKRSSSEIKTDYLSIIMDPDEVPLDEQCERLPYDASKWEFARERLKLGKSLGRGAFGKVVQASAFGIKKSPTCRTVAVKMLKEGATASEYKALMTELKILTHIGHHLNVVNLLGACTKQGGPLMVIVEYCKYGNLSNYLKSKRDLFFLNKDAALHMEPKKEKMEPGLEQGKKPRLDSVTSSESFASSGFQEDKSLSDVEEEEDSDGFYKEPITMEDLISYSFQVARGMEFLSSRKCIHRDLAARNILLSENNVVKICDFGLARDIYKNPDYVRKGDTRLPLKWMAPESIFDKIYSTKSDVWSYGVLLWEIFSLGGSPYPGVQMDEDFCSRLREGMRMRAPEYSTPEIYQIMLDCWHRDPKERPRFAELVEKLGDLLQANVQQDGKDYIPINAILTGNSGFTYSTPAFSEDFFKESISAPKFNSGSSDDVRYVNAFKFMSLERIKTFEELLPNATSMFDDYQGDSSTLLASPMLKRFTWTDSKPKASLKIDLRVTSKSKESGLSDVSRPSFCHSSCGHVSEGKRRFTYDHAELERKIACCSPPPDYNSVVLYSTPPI
- assay: VEGFR1 activity inhibition testing (HTRF in vitro kinase assay)
- Type: biochemical
- condition.details: humanized recombinant VEGFR1 protein, 0.8 μM ATP
pIC50: −log10 of the molar value.
measure: pIC50

Record request: pIC50 value, item COc1cc2nccc(Oc3ccc4c(c3)CCN4C(=O)NC3CC3)c2cc1C(N)=O
7.00 to 8.00

###

- target.of.assay: VEGFR2 (Homo sapiens (Human), UniProt P35968)
- Sequence (P35968 20-1356): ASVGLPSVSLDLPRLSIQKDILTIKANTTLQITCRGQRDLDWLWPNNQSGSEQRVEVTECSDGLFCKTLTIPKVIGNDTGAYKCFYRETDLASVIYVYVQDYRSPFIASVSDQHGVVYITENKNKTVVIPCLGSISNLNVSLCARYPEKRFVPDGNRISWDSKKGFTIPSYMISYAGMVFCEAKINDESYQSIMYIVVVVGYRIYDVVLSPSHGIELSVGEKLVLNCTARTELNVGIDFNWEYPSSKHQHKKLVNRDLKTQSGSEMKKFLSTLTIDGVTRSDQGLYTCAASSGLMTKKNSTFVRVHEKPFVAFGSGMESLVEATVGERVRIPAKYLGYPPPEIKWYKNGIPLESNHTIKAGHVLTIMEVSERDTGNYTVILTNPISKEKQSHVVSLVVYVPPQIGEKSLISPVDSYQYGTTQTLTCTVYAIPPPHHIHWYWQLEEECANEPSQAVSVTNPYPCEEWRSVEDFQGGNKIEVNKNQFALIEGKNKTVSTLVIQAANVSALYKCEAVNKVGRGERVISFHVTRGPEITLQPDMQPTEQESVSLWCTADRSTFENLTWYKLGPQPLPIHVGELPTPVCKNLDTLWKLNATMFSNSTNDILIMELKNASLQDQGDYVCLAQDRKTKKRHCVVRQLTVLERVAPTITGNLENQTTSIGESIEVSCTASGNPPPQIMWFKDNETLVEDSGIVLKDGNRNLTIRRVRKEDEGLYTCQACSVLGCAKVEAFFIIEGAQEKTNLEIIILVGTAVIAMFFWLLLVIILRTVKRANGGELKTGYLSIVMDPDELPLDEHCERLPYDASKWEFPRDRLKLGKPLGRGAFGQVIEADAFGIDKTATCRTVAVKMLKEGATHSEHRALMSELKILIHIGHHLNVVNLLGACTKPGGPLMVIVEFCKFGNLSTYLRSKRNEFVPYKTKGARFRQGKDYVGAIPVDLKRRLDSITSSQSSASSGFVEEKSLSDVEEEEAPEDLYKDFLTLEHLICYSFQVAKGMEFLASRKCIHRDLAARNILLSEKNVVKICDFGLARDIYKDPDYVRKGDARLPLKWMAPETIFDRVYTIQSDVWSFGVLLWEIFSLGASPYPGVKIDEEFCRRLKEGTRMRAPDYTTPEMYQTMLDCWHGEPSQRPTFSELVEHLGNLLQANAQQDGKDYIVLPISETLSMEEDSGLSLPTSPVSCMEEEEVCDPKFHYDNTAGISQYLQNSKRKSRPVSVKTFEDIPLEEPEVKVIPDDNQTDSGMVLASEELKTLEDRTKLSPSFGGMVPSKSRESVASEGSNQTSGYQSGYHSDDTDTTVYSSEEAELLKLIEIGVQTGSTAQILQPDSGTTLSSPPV
- assay: VEGFR2 activity inhibition testing (HTRF in vitro kinase assay)
- condition.details: humanized recombinant VEGFR2 protein, 3.5 μM ATP
pIC50: −log10 of the molar value.
measure: pIC50

Record request: pIC50 value, item COc1cc2nccc(Oc3ccc4c(c3)CCN4C(=O)Nc3ccc(F)cc3)c2cc1C(N)=O [Compound 4]
> 8.00

Record request: pIC50 value, item COc1cc2nccc(Oc3ccc4c(c3)CCN4C(=O)NC3CC3)c2cc1C(N)=O [Compound 1]
> 8.00

Record request: pIC50 value, item NC(=O)c1cc2c(Oc3ccc4c(c3)CCN4C(=O)NC3CC3)ccnc2cc1O [Compound 2]
7.00 to 8.00

Record request: pIC50 value, item COc1cc2nccc(Oc3ccc4c(c3)CCN4C(=O)NC3CC3)c2cc1OC [Compound 5]
7.00 to 8.00

Record request: pIC50 value, item COc1cc2nccc(Oc3ccc4c(c3)CCN4C(=O)Nc3cc(C)on3)c2cc1C(N)=O [Compound 6]
> 8.00

Record request: pIC50 value, item CNC(=O)N1CCc2cc(Oc3ccnc4cc(OC)c(C(N)=O)cc34)ccc21 [Compound 3]
7.00 to 8.00
